Field: fold-change of OD 450 over negative control (BSA). Provide a value for each of the binders that follow.
assay-target: T1, Inhibin A (Homo sapiens (Human), UniProt P05111 233-366; P08476 311-426)
T1 sequence 1: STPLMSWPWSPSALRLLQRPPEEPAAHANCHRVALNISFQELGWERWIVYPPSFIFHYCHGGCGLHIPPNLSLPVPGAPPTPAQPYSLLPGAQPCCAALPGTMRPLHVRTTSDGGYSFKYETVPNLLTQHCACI
T1 sequence 2: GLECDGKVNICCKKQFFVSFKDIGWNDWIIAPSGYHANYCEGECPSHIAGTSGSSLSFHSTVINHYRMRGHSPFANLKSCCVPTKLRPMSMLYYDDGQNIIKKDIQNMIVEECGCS
assay-method-text: ELISA, coated antigen, OD450
Reply with just the number (in fold).

Problem: Would you mind telling me what fold-change of OD 450 over negative control (BSA) value was observed for AB341 (antibody, IgG1, V domains shown) VH: EVQLVESGGGLVQPGGSLRLSCAASGYTFSNYGMSWVRQAPGKGLELVASISKSGSSIYYPDSVKGRFTISRDNAKNSLYLQMNSLRAEDTAVYYCARLPRLAWNYYYGMDVWGQGTTVTVSS VL: DIVMTQSPLSLPVTPGEPASISCRSSQSLLHSNEKNYLHWYLQKPGQSPQLLIYDASKRASGVPDRFSGSGSGTDFTLKISRVEAEDVGVYYCVQDLHTPFTFGGGTKVEIK ?
Result: 0.81

Problem: // returns reported fold-change of OD 450 over negative control (BSA) for input AB363 (antibody, IgG1, V domains shown) VH: QVTLRESGPALVKPTQTLTLTCTVSGFSLSTSGATVNWIRQPPGKALEWIGYITSSGRTVYNSALKSRLTISKDTSKNQVVLTMTNMDPVDTATYYCTTTKIVGATLRDYWGQGTLVTVSS VL: DIQMTQSPSSVSASVGDRVTITCRASQGISNDLAWYQQKPGKAPKLLIYDVSNRASGVPSRFSGSGSGTDFTLTISSLQPEDFANYYCQQYDNPPSFGGGTKVEIK
Result: 0.53

Problem: Endpoint output: fold-change of OD 450 over negative control (BSA) of AB435 (antibody, IgG1, V domains shown) VH: QVQLQESGPGLVKPSQTLSLTCTVSGYSLTDARIGVNWIRQPPGKGLEWIGYINPSGRTDYNPSLKSRVTMSVDTSKNQFSLKVNSVTAADTAVYYCARAGYPDVWGKGTTVTVSS VL: EIVMTQSPATLSLSPGERATLSCRASQSIGTKLAWYQQKPGQAPRLLIYDASSRVPGIPARFSGSGSGTDFTLTISSLEPEDFAVYYCQQYGSSPPVYSFGGGTKVEIK . Value?
Result: 0.74

Problem: Would you kindly share the measured fold-change of OD 450 over negative control (BSA) for AB438 (antibody, IgG1, V domains shown) VH: QVQLQESGPGLVKPSQTLSLTCTVSGVSLSNARLGVNWIRQPPGKGLEWIGYGSVTGSTDYNPSLKSRVTMSVDTSKNQFSLKVNSVTAADTAVYYCTTSYLVDTAMVTRWGQGTLVTVSS VL: EIVMTQSPATLSLSPGERATLSCRASQSLGTNLAWYQQKPGQAPRLLIYGASSRPSGIPARFSGSGSGTDFTLTISSLEPEDFAVYYCQQYDTHPLSFGGGTKVEIK ?
Result: 0.23

Problem: Look up fold-change of OD 450 over negative control (BSA) for this binder: AB346 (antibody, IgG1, V domains shown) VH: QVQLQESGPGLVKPSQTLSLTCTVSGFPLSTSRMGVNWIRQPPGKGLEWIGYINPSGATDYNPSLKSRVTMSVDTSKNQFSLKVNSVTAADTAVYYCARAGYPDVWGKGTTVTVSS VL: EIVMTQSPATLSLSPGERATLSCRASRSVSSDLAWYQQKPGQAPRLLIYDVSTRATGIPARFSGSGSGTDFTLTISSLEPEDFAVYYCQQYGSSLPPTFGGGTKVEIK
Result: 0.58

Problem: Which fold-change of OD 450 over negative control (BSA) reading was recorded for the binder AB345 (antibody, IgG1, V domains shown) VH: EVQLVESGGGLVQPGGSLRLSCAASGFTSSGYWMSWFRQAPGKGLELVASIGTAGVTYYPDSVKGRFTISRDNAKNSLYLQMNSLRAEDTAVYYCARGPHGPQQRLRFDPWGQGTLVTVSS VL: DIVMTQSPLSLPVTPGEPASISCRSSQSLLSSYGYHNLHWYLQKPGQSPQLLIYMGSIRAPGVPDRFSGSGSGTDFTLKISRVEAEDVGVYYCMQGTQAPRTFGGGTKVEIK ?
Result: 3.43

Problem: Report fold-change of OD 450 over negative control (BSA) for AB342 (antibody, IgG1, V domains shown) VH: EVQLVESGGGLVQPGGSLRLSCAASGFDFGEHWMSWVRQAPGKGLELVASIKGDASDTYYPDSVKGRFTISRDNAKNSLYLQMNSLRAEDTAVYYCVKDLSKQWLGIDYWGQGTLVTVSS VL: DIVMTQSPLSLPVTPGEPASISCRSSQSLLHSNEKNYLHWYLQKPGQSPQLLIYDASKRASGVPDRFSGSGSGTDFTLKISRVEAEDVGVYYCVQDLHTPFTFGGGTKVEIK please.
Result: 0.36

Problem: For the binder AB344 (antibody, IgG1, V domains shown) VH: EVQLVESGGGLVQPGGSLRLSCAASGYTFSNYGMSWVRQAPGKGLELVASISKSGSSIYYPDSVKGRFTISRDNAKNSLYLQMNSLRAEDTAVYYCARLPRLAWNYYYGMDVWGQGTTVTVSS VL: DIVMTQSPLSLPVTPGEPASISCRSSRSLVHGSGDNYLHWYLQKPGQSPQLLIYMASNRAPGVPDRFSGSGSGTDFTLKISRVEAEDVGVYYCVQTLQTPSTFGGGTKVEIK , what fold-change of OD 450 over negative control (BSA) is on record?
Result: 1.18
